# Target of assay: T1, human NPRA (human, UniProt P16066 33-1061)
# T1 sequence (looked up): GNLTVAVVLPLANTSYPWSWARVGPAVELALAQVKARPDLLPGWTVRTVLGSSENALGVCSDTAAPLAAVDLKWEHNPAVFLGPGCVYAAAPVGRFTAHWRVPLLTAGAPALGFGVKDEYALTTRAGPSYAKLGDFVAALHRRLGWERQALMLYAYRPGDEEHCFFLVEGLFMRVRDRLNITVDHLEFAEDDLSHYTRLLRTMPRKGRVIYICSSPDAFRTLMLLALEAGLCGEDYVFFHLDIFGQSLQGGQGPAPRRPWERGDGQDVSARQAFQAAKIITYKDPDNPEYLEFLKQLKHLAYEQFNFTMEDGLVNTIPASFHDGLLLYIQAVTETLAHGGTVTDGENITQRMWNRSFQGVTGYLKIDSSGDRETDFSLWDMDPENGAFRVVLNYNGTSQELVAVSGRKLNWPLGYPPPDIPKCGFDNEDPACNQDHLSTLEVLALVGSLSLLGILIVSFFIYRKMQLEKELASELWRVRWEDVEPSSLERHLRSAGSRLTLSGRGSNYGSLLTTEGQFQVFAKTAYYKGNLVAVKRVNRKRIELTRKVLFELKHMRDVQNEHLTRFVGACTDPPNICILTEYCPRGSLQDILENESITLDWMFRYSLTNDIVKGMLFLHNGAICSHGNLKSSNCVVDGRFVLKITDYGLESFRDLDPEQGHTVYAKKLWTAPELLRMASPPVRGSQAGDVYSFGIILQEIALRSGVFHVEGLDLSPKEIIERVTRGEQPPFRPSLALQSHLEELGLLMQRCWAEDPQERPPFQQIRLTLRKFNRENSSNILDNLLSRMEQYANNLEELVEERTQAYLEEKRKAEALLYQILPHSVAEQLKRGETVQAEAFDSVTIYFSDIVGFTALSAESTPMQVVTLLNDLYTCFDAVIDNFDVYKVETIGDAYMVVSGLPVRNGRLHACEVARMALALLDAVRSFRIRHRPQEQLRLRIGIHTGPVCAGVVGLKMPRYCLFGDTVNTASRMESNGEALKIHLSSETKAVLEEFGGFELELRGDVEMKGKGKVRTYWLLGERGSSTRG
# Assay notes: cell-based or functional assay
Numbered stars: 1 amine (or outer) side, 2 acyl side, 3 side chain; on linkers, the order of the positions; unused ones are H or OH. Bridge positions count the residues as written; N and C are the ends. Square brackets hold non-standard residues; d marks the D form. * marks the point of attachment. thioacetal = thioacetal linkage between two cysteines (intrachain bond at the bracketed Cys); C20 diacid = O=C(O)CCCCCCCCCCCCCCCCCCC(=O)*; γGlu = O=C(O)[C@H](CCC(=O)[*:2])N[*:1]; βAla = NCCC(=O)O
Each entry gets false (0) if its cGMP Assay (EC50, pM) w/Casein, hNPRA stays under 700 pM, and true (1) if its cGMP Assay (EC50, pM) w/Casein, hNPRA is 700 pM or above.

Binder	Assigned category
EKPRSSCFGKRIDRIGHYSGLGCPSFRHSGSPSSGAPPPSG (N-terminus acylated with HOOC-(CH2)18-CO-(γGlu)-; (AEEA)8 after EKEKEKG; thioacetal linkage between the two bracketed Cys; C-terminal amide) [HOOC-(CH2)18-CO-(γGlu)-EKEKEKG-(AEEA)8-EKPRSS[CFGKRIDRIGHYSGLGC]PSFRHSGSPSSGAPPPSG-NH2]	true (1)
EKPRSSCFGKRIDRIGHYSGLGCPSFRHGSPSSGAPPPS (N-terminus acylated with HOOC-(CH2)18-CO-(γGlu)-; (AEEA)6 after EKEKEKG; thioacetal linkage between the two bracketed Cys; C-terminal amide) [HOOC-(CH2)18-CO-(γGlu)-EKEKEKG-(AEEA)6-EKPRSS[CFGKRIDRIGHYSGLGC]PSFRHGSPSSGAPPPS-NH2]	false (0)
{C20 diacid-γGlu}-EKEKEKGEK[βAla]RSSCFGKRIDRIGHYSGLGCPSFRHGSPSSGAPPPS-NH2 (bridge 14-30 via thioacetal) [HOOC-(CH2)18-CO-(γGlu)-EKEKEKGEK-βAla-RSS[CFGKRIDRIGHYSGLGC]PSFRHGSPSSGAPPPS-NH2]	false (0)
EKPRSSCFGKRIDRIGHYSGLGCPSFRHSGSPSSGAPPPSG (N-terminus acylated with HOOC-(CH2)18-CO-(γGlu)-; (AEEA)6 after EKEKEKG; thioacetal linkage between the two bracketed Cys; C-terminal amide) [HOOC-(CH2)18-CO-(γGlu)-EKEKEKG-(AEEA)6-EKPRSS[CFGKRIDRIGHYSGLGC]PSFRHSGSPSSGAPPPSG-NH2]	true (1)
EKXRSSCFGKRIDRIGHQSGLGCPSFRHGSPSSGAPPPS (N-terminus acylated with HOOC-(CH2)18-CO-(γGlu)-; (AEEA)8 after EKEKEKG; βAla; thioacetal linkage between the two bracketed Cys; C-terminal amide) [HOOC-(CH2)18-CO-(γGlu)-EKEKEKG-(AEEA)8-EK-βAla-RSS[CFGKRIDRIGHQSGLGC]PSFRHGSPSSGAPPPS-NH2]	false (0)
EKXRSSCFGKRIDRIGHYSGLGCPSFRHGSPSSGAPPPS (N-terminus acylated with HOOC-(CH2)18-CO-(γGlu)-; PEG24 after EKEKEKG; βAla; thioacetal linkage between the two bracketed Cys; C-terminal amide) [HOOC-(CH2)18-CO-(γGlu)-EKEKEKG-PEG24-EK-βAla-RSS[CFGKRIDRIGHYSGLGC]PSFRHGSPSSGAPPPS-NH2]	true (1)
